- system_under_test: Leucine aminopeptidase (Plasmodium falciparum (isolate 3D7))
- protocol_notes: P. falciparum M17LAP inhibitors, primary screen, biochemical, fluorogenic H-Leu-NHMec substrate, 1536-well (AID 1619);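 also: plate controls were full reaction with DMSO carrier for no effect and no enzyme background for full effect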
- test_parameters: recombinant M17LAP, H-Leu-NHMec fluorogenic kinetic assay; at 30 µM; hits give high values
In all, about 220,000 compounds went through this assay and about 830 (0.38%) were called active. The list is a sample of the results. Potency and affinity values are given separately.
# label = TRUE if inhibition >= 10% else FALSE

Some entries whose results are on file:
INSERT INTO results (molecule_smiles, assigned_category) VALUES
  ('COc1ccc(N2CCN(c3n[nH]c(N)n3)CC2)cc1', 'FALSE'),
  ('Cc1cc(NS(=O)(=O)c2ccc(NC(=O)c3cnc4sccn4c3=O)cc2)nc(C)n1', 'FALSE'),
  ('COc1ccc(NC(=O)CN2c3cccc4cccc(c34)S2(=O)=O)c(OC)c1', 'TRUE'),
  ('O=C(CCN1C(=O)c2ccccc2S1(=O)=O)Nc1ccccc1', 'FALSE'),
  ('O=C(O)CCC(=O)Nc1nc2ccccc2s1', 'TRUE');

Task: Hi team, for Cn1c(=O)c2c(SCC(=O)N3CCOCC3)nc(C3CCCCC3)nc2n(C)c1=O , is the recorded inhibition at or above 10%?
Result: FALSE

====

Entries and their measured inhibition follow.
- system_under_test: Leucine aminopeptidase (Plasmodium falciparum (isolate 3D7)) (UniProt Q8IL11)
- Sequence (Q8IL11 whole entry, looked up): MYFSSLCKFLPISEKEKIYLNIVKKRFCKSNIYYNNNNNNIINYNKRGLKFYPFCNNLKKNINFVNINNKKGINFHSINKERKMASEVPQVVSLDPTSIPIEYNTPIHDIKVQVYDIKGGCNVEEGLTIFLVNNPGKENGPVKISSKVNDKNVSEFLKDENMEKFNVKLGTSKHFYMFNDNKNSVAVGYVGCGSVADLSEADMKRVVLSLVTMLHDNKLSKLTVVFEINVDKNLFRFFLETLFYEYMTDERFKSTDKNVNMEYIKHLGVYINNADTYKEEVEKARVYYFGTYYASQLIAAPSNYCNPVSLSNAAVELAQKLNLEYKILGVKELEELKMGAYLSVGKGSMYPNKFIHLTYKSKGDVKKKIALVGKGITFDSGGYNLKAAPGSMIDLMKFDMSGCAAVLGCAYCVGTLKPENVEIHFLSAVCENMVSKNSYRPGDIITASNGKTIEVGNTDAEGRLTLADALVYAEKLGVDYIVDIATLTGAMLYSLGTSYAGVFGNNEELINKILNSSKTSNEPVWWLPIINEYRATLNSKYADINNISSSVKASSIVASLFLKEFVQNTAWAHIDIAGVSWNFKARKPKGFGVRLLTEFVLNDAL
- protocol_notes: P. falciparum M17LAP inhibitors, primary screen, biochemical, fluorogenic H-Leu-NHMec substrate, 1536-well (AID 1619)
- test_parameters: recombinant M17LAP, H-Leu-NHMec fluorogenic kinetic assay; at 30 µM; hits give high values
Among all 220,000 compounds or so, about 830 (0.38%) were called active. Only a sample is shown. Potency and affinity values are given separately.
Kindly answer with a numeric value in %, unit omitted.

Task: Reported inhibition for C=CC(C)(C)c1cc2cc3ccoc3cc2oc1=O : what is it?
Result: 3.93

Task: Try this compound too: c1ccc(CNc2ncnc3nc[nH]c23)cc1
Result: 45.1

Task: Try this compound too: O=C(Nc1nncs1)c1cccnc1Cl
Result: 26.3

Task: Try this compound too: Cn1nc(-c2ccc(NCCO)c([N+](=O)[O-])c2)c2ccccc2c1=O
Result: -6.44

Task: Try this compound too: CSc1cccc(NC(=O)CSc2ncccc2C(=O)Oc2cccc([N+](=O)[O-])c2)c1
Result: 53

Task: Try this compound too: COc1ccccc1CNc1ncnc2nc[nH]c12
Result: 6.16

Task: Try this compound too: COCC(C)NC(=O)c1cc2cccc([N+](=O)[O-])c2[nH]1 (stereo unspecified)
Result: 11.6

Task: Try this compound too: CCC(Sc1ncccc1C(=O)Oc1cccc([N+](=O)[O-])c1)C(=O)Nc1ccccc1OC (stereo unspecified)
Result: 46.5

Task: Try this compound too: Cc1nn(C)cc1/C=N/NC(=O)Cn1cncn1
Result: 0.36

Task: Try this compound too: CCN(C(=O)CSc1ncccc1C(=O)Oc1cccc([N+](=O)[O-])c1)c1cccc(C)c1
Result: -2.44

Task: Try this compound too: CCCCC(CC)C(=O)NCC(C)NC(=O)C(CC)CCCC (stereo unspecified)
Result: 2.99

====

- system_under_test: Leucine aminopeptidase (Plasmodium falciparum (isolate 3D7)) (UniProt Q8IL11)
- protocol_notes: P. falciparum M17LAP inhibitors, primary screen, biochemical, fluorogenic H-Leu-NHMec substrate, 1536-well (AID 1619)
- test_parameters: recombinant M17LAP, H-Leu-NHMec fluorogenic kinetic assay; at 30 µM; hits give high values
The campaign covered roughly 220,000 compounds. About 830 (0.38%) were called active. Only a sample is shown. Potency and affinity values are given separately.
readout_kind: inhibition (%)
Kindly answer with a numeric value in %, unit omitted.

Task: Reported inhibition for Cc1cccc(C(=O)NC(=S)Nc2ccccc2C(=O)O)c1 : what is it?
Result: 3.36

Task: Try this compound too: O=C(Cc1ccccc1)NNC(=S)NC(=O)c1cccnc1
Result: 13.8

====

- system_under_test: Leucine aminopeptidase (Plasmodium falciparum (isolate 3D7))
- protocol_notes: P. falciparum M17LAP inhibitors, primary screen, biochemical, fluorogenic H-Leu-NHMec substrate, 1536-well (AID 1619)
- test_parameters: recombinant M17LAP, H-Leu-NHMec fluorogenic kinetic assay; at 30 µM; hits give high values
Out of some 220,000 compounds screened, about 830 (0.38%) were called active. A selection follows. Potency and affinity values are given separately.
Entries and their measured inhibition follow.
Kindly answer with a numeric value in %, unit omitted.

Answered examples (5):
INSERT INTO measurements (molecule_smiles, unit_name, result_value) VALUES
  ('O=C(CSc1ncnc2scc(-c3ccccc3)c12)Nc1ccc(C(=O)O)cc1', '%', 5.99),
  ('COc1ccc(CNc2ncccn2)cc1OC', '%', -2.62),
  ('COc1cc(NC(=O)CSc2ccccc2)c(C(=O)O)cc1OC', '%', 39.3),
  ('Cc1cc(C)n2nc(SCc3ccccc3)nc2n1', '%', -5.69),
  ('COc1ccc(CNc2nc3nc(C)cc(C)n3n2)cc1OC', '%', 4.62);

Task: Request: inhibition, test system Leucine aminopeptidase (Plasmodium falciparum (isolate 3D7)), entry Cc1nc2nc(COc3ccccc3)nn2c(C)c1Cl
Result: -4.07

Task: Try this molecule too: COc1cc(C)nc2nc(SCc3ccccc3)nn12
Result: -4.54

====

- system_under_test: Leucine aminopeptidase (Plasmodium falciparum (isolate 3D7)) (UniProt Q8IL11)
- protocol_notes: P. falciparum M17LAP inhibitors, primary screen, biochemical, fluorogenic H-Leu-NHMec substrate, 1536-well (AID 1619);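 also: plate controls were full reaction with DMSO carrier for no effect and no enzyme background for full effect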
- test_parameters: recombinant M17LAP, H-Leu-NHMec fluorogenic kinetic assay; at 30 µM; hits give high values
Among all 220,000 compounds or so, about 830 (0.38%) were called active. Only a sample is shown. Results with a measured potency or affinity are listed apart.
readout_kind: inhibition (%)
Kindly answer with a numeric value in %, unit omitted.

INSERT INTO measurements (compound, readout_kind, unit_name, result_value) VALUES
  ('CCCCn1nc(C(=O)Nc2cc(S(=O)(=O)N(C)C)ccc2C)c2ccccc2c1=O', 'inhibition', '%', 0.9),
  ('O=C1c2ccccc2C(=O)c2cc(S(=O)(=O)Nc3ccccc3)ccc21', 'inhibition', '%', 9.48),
  ('CCCCCCCCC(=O)N/N=C(\C)c1ccc(O)cc1O', 'inhibition', '%', 0.48);

Task: Request: inhibition, test system Leucine aminopeptidase (Plasmodium falciparum (isolate 3D7)) (UniProt Q8IL11), entry CC(C)=CC(=O)Nc1ccc(OCc2ccccc2)cc1
Result: 2.98

Task: Try this compound too: COc1ccc(N2C(=O)CCC(C(=O)N3CCCCCC3)C2c2ccc(OC)c(OC)c2)cc1 (configuration not stated)
Result: -1.54

Task: Try this compound too: Cc1cccc(C)c1NC(=S)N1CCC(c2ccccc2)C1 (configuration not stated)
Result: 2.96

====

- system_under_test: Leucine aminopeptidase (Plasmodium falciparum (isolate 3D7)) (UniProt Q8IL11)
- protocol_notes: P. falciparum M17LAP inhibitors, primary screen, biochemical, fluorogenic H-Leu-NHMec substrate, 1536-well (AID 1619);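 also: plate controls were full reaction with DMSO carrier for no effect and no enzyme background for full effect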
- test_parameters: recombinant M17LAP, H-Leu-NHMec fluorogenic kinetic assay; at 30 µM; hits give high values
The campaign covered roughly 220,000 compounds. About 830 (0.38%) were called active. These entries were drawn from the full list. Entries with a potency or affinity are not part of this list.
Entries and their measured inhibition follow.
Kindly answer with a numeric value in %, unit omitted.

INSERT INTO measurements (molecule, readout_kind, unit_name, result_value) VALUES
  ('CCOn1c(-n2nc(C)cc2C)nc2ccccc2c1=O', 'inhibition', '%', -1.28),
  ('NC(=O)CSc1nccn1Cc1ccc(Cl)cc1', 'inhibition', '%', -2.93),
  ('CCOc1ccc(OCc2cccc(C(=O)N(CC)CC)c2)cc1', 'inhibition', '%', -4.73);

Task: Reported inhibition for COC(=O)c1ccc(C)c(NC(=O)Cn2cnc3ccccc3c2=O)c1 : what is it?
Result: 54.1

Task: Try this molecule too: COc1ccc(OC)c(NC(=S)N(CCc2c(C)[nH]c3ccc(C)cc23)Cc2cccs2)c1
Result: 3.79

Task: Try this molecule too: COc1cccc(CC(NC(C)=O)C(=O)NC2CCN(c3nnnn3-c3ccccc3)CC2)c1 (configuration not stated)
Result: 5.55

Task: Try this molecule too: O=C1NC2(CCCCC2)C(=O)N1/N=C/c1ccccc1Br
Result: -1.17

Task: Try this molecule too: CCOC(=O)NC(=O)C(=CNc1ccccc1OC)C(=O)NC(=O)OCC
Result: 22.1

====

- system_under_test: Leucine aminopeptidase (Plasmodium falciparum (isolate 3D7)) (UniProt Q8IL11)
- protocol_notes: P. falciparum M17LAP inhibitors, primary screen, biochemical, fluorogenic H-Leu-NHMec substrate, 1536-well (AID 1619);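 also: plate controls were full reaction with DMSO carrier for no effect and no enzyme background for full effect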
- test_parameters: recombinant M17LAP, H-Leu-NHMec fluorogenic kinetic assay; at 30 µM; hits give high values
Hit rate of the full screen: of about 220,000 compounds, about 830 (0.38%) were called active. A selection follows. Entries with a potency or affinity are not part of this list.
readout_kind: inhibition (%)
Kindly answer with a numeric value in %, unit omitted.

INSERT INTO measurements (compound, unit_name, result_value) VALUES
  ('O=C(CCC(=O)Nc1ccc(Cl)cc1Cl)NNC(=O)[C@@H]1CCCC[C@@H]1C(=O)O', '%', -2.95),
  ('CC1C(=O)NN=C1C(=O)N/N=C\C(Br)=C\c1ccccc1 (stereo not drawn)', '%', 45.9),
  ('Cc1ccc(F)c(NC(=O)C2CCCCC2C(=O)O)c1 (stereo not drawn)', '%', 4.08),
  ('CC(C)Cn1c2ccccc2c2cc(C(=O)O)ccc21', '%', 1.66);

Task: Reported inhibition for Cc1cc(NC(=O)Nc2ccc(C)c(C)c2)no1 : what is it?
Result: 1.89

Task: Try this compound too: S=C(NCc1ccco1)Nc1ccccc1Cl
Result: 2.12

Task: Try this compound too: CC1=NNC(=O)C1CC(=O)N/N=C/C=C/c1ccccc1 (stereo not drawn)
Result: 19.3

Task: Try this compound too: CC(=O)Nc1ccc(CN2CCCC(CO)(Cc3ccccc3C)C2)cc1 (stereo not drawn)
Result: -0.77

Task: Try this compound too: COc1ccc(OC)c(CNC(=O)Cc2c(C(=O)O)[nH]c3ccccc23)c1
Result: 28.4

Task: Try this compound too: CC1=C(C(=O)OCc2ccccc2)C(c2ccc(Cl)cc2Cl)NC(=O)N1CCCC(=O)O (stereo not drawn)
Result: 0.51

Task: Try this compound too: Cc1cc(C(F)(F)F)nn1CC(=O)NNC(=S)Nc1ccc(Cl)cc1
Result: 19.4

Task: Try this compound too: O=C(O)C1CCCCC1C(=O)Nc1ccccc1Cl (stereo not drawn)
Result: 43.9

Task: Try this compound too: C/C(=C\c1ccccc1)CN1CCC(C(=O)N2CCC(C)CC2)CC1
Result: 1.41

Task: Try this compound too: Cc1ccc(NC(=O)CCC(=O)N/N=C/C=C/c2ccccc2)cc1
Result: 16.5

Task: Try this compound too: Cc1ccc(NC(=O)c2ccccc2-c2ccccc2C(=O)O)cc1C
Result: 4.01

Task: Try this compound too: O=C(NC1CCCCC1)c1ccccc1NC(=S)NC(=O)C1CC1
Result: 5.81

Task: Try this compound too: COc1ccccc1NC(=O)Nc1cc(C(C)C)ccc1C
Result: 3.16

Task: Try this compound too: CCOc1c(Br)cc(CNc2ccc3c(c2)OCCO3)cc1OC
Result: 2.99

Task: Try this compound too: CC(/C=N/NC(=O)CSc1nc(C)cc(C)n1)=C\c1ccccc1
Result: 11.7

Task: Try this compound too: COC(=O)c1ccccc1NC(=O)C1CC=CCC1C(=O)O (stereo not drawn)
Result: 29.7

Task: Try this compound too: O=C(CNC(=O)c1ccccc1)NCC(=O)OCc1ccccc1Cl
Result: -2.59

Task: Try this compound too: Cc1cccc(OCCOC(=O)C2CCN(S(=O)(=O)c3cccs3)CC2)c1
Result: -6.82

Task: Try this compound too: CC1=C(C(=O)OCc2ccccc2)C(c2ccc(Cl)cc2)NC(=O)N1CCCCCC(=O)O (stereo not drawn)
Result: 47.3
